Each recorded value in this set is attributed to patent US7812025B2.

Recorded inhibition at 1 µM, one value per entry.
target-or-test-system: Human FAAH (Homo sapiens, UniProt O00519)
Construct: made in house; 10000 g pellet suspended in M-PER
Sequence (O00519 whole entry): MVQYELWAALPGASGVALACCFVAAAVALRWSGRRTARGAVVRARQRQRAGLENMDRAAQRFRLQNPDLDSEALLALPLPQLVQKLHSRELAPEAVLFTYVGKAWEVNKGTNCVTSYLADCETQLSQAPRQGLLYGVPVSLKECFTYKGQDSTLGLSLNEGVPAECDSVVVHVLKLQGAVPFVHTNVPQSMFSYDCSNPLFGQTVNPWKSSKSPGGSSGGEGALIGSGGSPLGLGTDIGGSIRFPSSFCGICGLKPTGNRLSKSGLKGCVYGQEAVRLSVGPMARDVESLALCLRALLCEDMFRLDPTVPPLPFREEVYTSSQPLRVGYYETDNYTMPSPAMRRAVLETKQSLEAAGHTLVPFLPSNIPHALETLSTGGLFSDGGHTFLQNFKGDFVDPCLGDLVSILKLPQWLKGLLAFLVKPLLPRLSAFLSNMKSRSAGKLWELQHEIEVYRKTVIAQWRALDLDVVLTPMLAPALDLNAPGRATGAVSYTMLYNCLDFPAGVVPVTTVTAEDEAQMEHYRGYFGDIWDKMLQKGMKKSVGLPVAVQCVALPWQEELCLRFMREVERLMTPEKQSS
run-description: Measurement of FAAH inhibitory activity (enzyme fraction from CHO-K1/human FAAH, substrate anandamide [ethanolamine 1-3H])
Assay type: biochemical
assay-conditions: 1 μM test compound; 25 nM anandamide [ethanolamine 1-3H]; 60 ng enzyme fraction; 37° C. for 30 minutes; pH 9.0; read-out: Human FAAH Inhibition Rate at 1 μM (%)
Entry rule: numbers only, all in %.

Reference set (4 entries):
[
  {
    "structure-smiles-string": "O=C(Nc1cccnn1)N1CCN(c2cc(-c3ccccc3)ccn2)CC1",
    "inhibition at 1 µM [%]": 91
  },
  {
    "structure-smiles-string": "Cc1noc(NC(=O)N2CCN(c3ccc(-c4ccccc4)cn3)CC2)c1C",
    "inhibition at 1 µM [%]": 102
  },
  {
    "structure-smiles-string": "O=C(Nc1cccnc1)N1CCN(c2cccc(-c3ccoc3)c2)CC1",
    "inhibition at 1 µM [%]": 104
  },
  {
    "structure-smiles-string": "O=C(Nc1cccnc1)N1CCN(c2cccc(-c3ccsc3)c2)CC1",
    "inhibition at 1 µM [%]": 104
  }
]

Please supply the value of reported inhibition at 1 µM for the item "O=C(Nc1cccnc1)N1CCN(c2ccc(-c3ccccc3)cn2)CC1" 98
